Parameter ED50: see the listing below.
- Species on record: Rattus norvegicus
- ASSAY PROTOCOL: Inhibition of conditioned avoidance response (CAR)
- Format: functional
MEASURE NAME: ED50

# COMPOUND, MEASURE NAME, EXPERIMENTAL RESULT
measured = [
    ("O=C1CC2(CCCC2)CC(=O)N1CCCCN1CCCN(c2nsc3ccccc23)CC1", "ED50", "> 100 mg/kg"),
    ("CC1CN(c2nsc3ccccc23)CCN1CCCCN1C(=O)CC2(CCCC2)CC1=O (stereo not drawn)", "ED50", "> 100 mg/kg"),
    ("O=C1CC2(CCCC2)CC(=O)N1CCCCN1CCN(c2noc3ccc(Cl)cc23)CC1", "ED50", "> 100 mg/kg"),
]
